System: RPMI-8226
assay: Anticancer activity against human RPMI8226 cells assessed as cell growth at 10^-5 M after 48 hrs by SRB assay
Type: functional
conditions: RPMI-8226, 48 h, read-out: Activity
readout type: growth at 10 µM (%)
Provide only the numeric value, understood in %.

See these solved cases before continuing.
O=C(NCCNc1nccc(-c2c(-c3cccc(O)c3)nc3sccn23)n1)c1cc(C(F)(F)F)cc(C(F)(F)F)c1 :: 91
O=C(NCCNc1nccc(-c2c(-c3cccc(O)c3)nc3sccn23)n1)c1ccccc1O :: 11.6
COc1cccc(-c2nc3sccn3c2-c2ccnc(NCCNC(=O)c3ccc(N4CCOCC4)c(C(F)(F)F)c3)n2)c1 :: 39

Here is another compound to look at.
## Input Fill in the blank: the reported growth at 10 µM of COc1cccc(-c2nc3sccn3c2-c2ccnc(NCCNC(=O)c3ccccc3O)n2)c1 is ____.
## Output 26

###

Tested on: CCRF-CEM
assay: Anticancer activity against human CCRF-CEM cells assessed as cell growth at 10^-5 M after 48 hrs by SRB assay
Format: functional
conditions: read-out: Activity
Parameter growth at 10 µM: see the listing below.
Provide only the numeric value, understood in %.

O=C(NCCNc1nccc(-c2c(-c3cccc(O)c3)nc3sccn23)n1)c1ccccc1O :: 18.9
COc1cccc(-c2nc3sccn3c2-c2ccnc(NCCNC(=O)Nc3cccc(C(F)(F)F)c3)n2)c1 :: 27
O=C(NCCNc1nccc(-c2c(-c3cccc(O)c3)nc3sccn23)n1)c1cc(N2CCOCC2)cc(C(F)(F)F)c1 :: 52.9
COc1cccc(-c2nc3sccn3c2-c2ccnc(NCCNC(=O)c3ccc(N4CCOCC4)c(C(F)(F)F)c3)n2)c1 :: 54.6
COc1cccc(-c2nc3sccn3c2-c2ccnc(NCCNC(=O)Nc3ccccc3)n2)c1 :: 44.4
O=C(NCCNc1nccc(-c2c(-c3cccc(O)c3)nc3sccn23)n1)Nc1ccccc1 :: 46
COc1cccc(-c2nc3sccn3c2-c2ccnc(NCCNC(=O)c3ccccc3)n2)c1 :: 52.5
O=C(NCCNc1nccc(-c2c(-c3cccc(O)c3)nc3sccn23)n1)c1ccccc1 :: 47.3

Here is another compound to look at.
## Input What measured growth at 10 µM is associated with O=C(NCCNc1nccc(-c2c(-c3cccc(O)c3)nc3sccn23)n1)c1cccc(C(F)(F)F)c1 on CCRF-CEM?
## Output 37.5

###

System: UACC-257
assay: Anticancer activity against human UACC257 cells assessed as cell growth at 10^-5 M after 48 hrs by SRB assay
Type: functional
conditions: UACC-257, 48 h, read-out: Activity
readout type: growth at 10 µM (%)
Provide only the numeric value, understood in %.

See these solved cases before continuing.
O=C(NCCNc1nccc(-c2c(-c3cccc(O)c3)nc3sccn23)n1)c1cc(C(F)(F)F)cc(C(F)(F)F)c1 :: 66.5
O=C(NCCNc1nccc(-c2c(-c3cccc(O)c3)nc3sccn23)n1)Nc1cc(C(F)(F)F)cc(C(F)(F)F)c1 :: 57
O=C(NCCNc1nccc(-c2c(-c3cccc(O)c3)nc3sccn23)n1)c1cc(N2CCOCC2)cc(C(F)(F)F)c1 :: 16.7
COc1cccc(-c2nc3sccn3c2-c2ccnc(NCCNC(=O)c3cc(N4CCOCC4)cc(C(F)(F)F)c3)n2)c1 :: 89.5
O=C(NCCNc1nccc(-c2c(-c3cccc(O)c3)nc3sccn23)n1)c1ccccc1 :: 11.3
COc1cccc(-c2nc3sccn3c2-c2ccnc(NCCNC(=O)Nc3cccc(C(F)(F)F)c3)n2)c1 :: 69.5
O=C(NCCNc1nccc(-c2c(-c3cccc(O)c3)nc3sccn23)n1)c1ccccc1O :: 14.8
COc1cccc(-c2nc3sccn3c2-c2ccnc(NCCNC(=O)c3ccccc3O)n2)c1 :: 78.7

## Input Fill in the blank: the reported growth at 10 µM of COc1cccc(-c2nc3sccn3c2-c2ccnc(NCCNC(=O)c3cc(C(F)(F)F)cc(C(F)(F)F)c3)n2)c1 is ____.
## Output 99.6

###

Test system: KM12
assay: Anticancer activity against human KM12 cells after 48 hrs by SRB assay
Type: functional
conditions: KM12, 48 h, read-out: LC50 (the source's name)
readout type: CC50 (µM)
Provide only the numeric value, understood in µM.

See these solved cases before continuing.
O=C(NCCNc1nccc(-c2c(-c3cccc(O)c3)nc3sccn23)n1)Nc1cccc(C(F)(F)F)c1 :: 29.9
COc1cccc(-c2nc3sccn3c2-c2ccnc(NCCNC(=O)Nc3cccc(C(F)(F)F)c3)n2)c1 :: 39.3

## Input Fill in the blank: the reported CC50 of O=C(NCCNc1nccc(-c2c(-c3cccc(O)c3)nc3sccn23)n1)c1ccccc1 is ____.
## Output 67.1

###

Parameter growth at 10 µM: see the listing below.
Test system: UACC-257
assay: Anticancer activity against human UACC257 cells assessed as cell growth at 10^-5 M after 48 hrs by SRB assay
Format: functional
conditions: UACC-257, 48 h, read-out: Activity
Provide only the numeric value, understood in %.

See these solved cases before continuing.
O=C(NCCNc1nccc(-c2c(-c3cccc(O)c3)nc3sccn23)n1)Nc1ccccc1 :: 46.2
O=C(NCCNc1nccc(-c2c(-c3cccc(O)c3)nc3sccn23)n1)c1cccc(C(F)(F)F)c1 :: 14.3
COc1cccc(-c2nc3sccn3c2-c2ccnc(NCCNC(=O)c3ccc(N4CCOCC4)c(C(F)(F)F)c3)n2)c1 :: 87.7
COc1cccc(-c2nc3sccn3c2-c2ccnc(NCCNC(=O)c3cccc(C(F)(F)F)c3)n2)c1 :: 78.4
COc1cccc(-c2nc3sccn3c2-c2ccnc(NCCNC(=O)c3ccccc3)n2)c1 :: 69.7

## Input Fill in the blank: the reported growth at 10 µM of O=C(NCCNc1nccc(-c2c(-c3cccc(O)c3)nc3sccn23)n1)Nc1cccc(C(F)(F)F)c1 is ____.
## Output 25.3

## Input Fill in the blank: the reported growth at 10 µM of O=C(NCCNc1nccc(-c2c(-c3cccc(O)c3)nc3sccn23)n1)c1ccc(N2CCOCC2)c(C(F)(F)F)c1 is ____.
## Output 15.8

## Input Fill in the blank: the reported growth at 10 µM of COc1cccc(-c2nc3sccn3c2-c2ccnc(NCCNC(=O)Nc3ccccc3)n2)c1 is ____.
## Output 119

###

Test system: T47D
assay: Anticancer activity against human T47D cells assessed as cell growth at 10^-5 M after 48 hrs by SRB assay
Format: functional
conditions: read-out: Activity
readout type: growth at 10 µM (%)
Provide only the numeric value, understood in %.

O=C(NCCNc1nccc(-c2c(-c3cccc(O)c3)nc3sccn23)n1)Nc1ccccc1 :: 74.1
COc1cccc(-c2nc3sccn3c2-c2ccnc(NCCNC(=O)c3ccccc3)n2)c1 :: 61.9
COc1cccc(-c2nc3sccn3c2-c2ccnc(NCCNC(=O)c3cc(N4CCOCC4)cc(C(F)(F)F)c3)n2)c1 :: 86.3

## Input Fill in the blank: the reported growth at 10 µM of COc1cccc(-c2nc3sccn3c2-c2ccnc(NCCNC(=O)Nc3ccccc3)n2)c1 is ____.
## Output 82.5

## Input Fill in the blank: the reported growth at 10 µM of O=C(NCCNc1nccc(-c2c(-c3cccc(O)c3)nc3sccn23)n1)c1ccccc1O is ____.
## Output 61.8

## Input Fill in the blank: the reported growth at 10 µM of COc1cccc(-c2nc3sccn3c2-c2ccnc(NCCNC(=O)c3ccccc3O)n2)c1 is ____.
## Output 60.1

## Input Fill in the blank: the reported growth at 10 µM of O=C(NCCNc1nccc(-c2c(-c3cccc(O)c3)nc3sccn23)n1)c1cc(N2CCOCC2)cc(C(F)(F)F)c1 is ____.
## Output 77.7

## Input Fill in the blank: the reported growth at 10 µM of COc1cccc(-c2nc3sccn3c2-c2ccnc(NCCNC(=O)Nc3cccc(C(F)(F)F)c3)n2)c1 is ____.
## Output 42.9

## Input Fill in the blank: the reported growth at 10 µM of O=C(NCCNc1nccc(-c2c(-c3cccc(O)c3)nc3sccn23)n1)c1cccc(C(F)(F)F)c1 is ____.
## Output 69.5

###

System: K562
assay: Anticancer activity against human K562 cells assessed as cell growth at 10^-5 M after 48 hrs by SRB assay
Format: functional
conditions: K562, 48 h, read-out: Activity
readout type: growth at 10 µM
Write the figure, then the unit, nothing else.

See these solved cases before continuing.
COc1cccc(-c2nc3sccn3c2-c2ccnc(NCCNC(=O)c3ccc(N4CCOCC4)c(C(F)(F)F)c3)n2)c1 :: 32.6%
COc1cccc(-c2nc3sccn3c2-c2ccnc(NCCNC(=O)c3cccc(C(F)(F)F)c3)n2)c1 :: 48.1%

## Input Fill in the blank: the reported growth at 10 µM of O=C(NCCNc1nccc(-c2c(-c3cccc(O)c3)nc3sccn23)n1)c1ccc(N2CCOCC2)c(C(F)(F)F)c1 is ____.
## Output 63%

## Input Fill in the blank: the reported growth at 10 µM of O=C(NCCNc1nccc(-c2c(-c3cccc(O)c3)nc3sccn23)n1)c1cc(C(F)(F)F)cc(C(F)(F)F)c1 is ____.
## Output 96.2%
